- Measurement protocol: The drug is tested on WLS-082 corresponding to human gut metagenome with ENA study accession number: PRJEB37062 and ENA sample accession number: ERS12561751 for biotransformation under anaerobic condition. The drug concentrations were measured over 9 timepoints collected between 0 and 24 hours of incubation by liquid-chromatography-coupled mass spectrometry (LC–MS); also: call rule not given here
- Condition label: 2 µM

{"Compound": "CC(C)(C)NC[C@H](O)COc1nsnc1N1CCOCC1.O=C(O)/C=C\\C(=O)O [TIMOLOL MALEATE]", "Bacterial Biotransformation": "Compound NOT metabolized"}
{"Compound": "CCN1CCCC1CNC(=O)c1cc(S(=O)(=O)CC)c(N)cc1OC (stereo not drawn) [AMISULPRIDE]", "Bacterial Biotransformation": "Compound NOT metabolized"}
